B1: library; a variant is named by its letters at X, in order (parent)
chain: MNIQIGELAKRTACPVVTIRFYEQEGLLPPPGRSRGNFRLYGEEHVERLQFIRHCRSLDMPLSDVRTLLSYRKRPDQDCGEVXMLLDEHIRQVESRIGALLELKHHLVELREACSGARPAQSCGILQXLSXCVCXTRGTTAHXSD

Variants of: B1
measurementProtocol: sfGFP reporter fluorescence (15 h) (µM FITC); higher = higher leak
conditionSet: library round: Round 2; ligand: none
reportedEndpoint: sfGFP reporter fluorescence
Numbers only.

{"columns": ["mutationSpec", "sfGFP reporter fluorescence"],
 "data": [
  ["NGDDP P61E D64K E112H", 0.157]
]}

Batch: sfGFP reporter fluorescence for all items listed.
1. NIDDP H105E L107C C134E
2. NGDDP P61N D64K K104M L107C
3. NGAPY
4. TGAPW
5. TGCDL

[2.32, 0.791, 0.0801, 0.0521, 0.045]

Batch: sfGFP reporter fluorescence for all items listed.
1. NGDAM Q121A
2. NGDDP M60L P61N D64K K104V L107C
3. NGDAP P61D D64K L107C
4. NGCDA L107C
5. TGCAP Q121A

1. 0.0666
2. 0.716
3. 2.53
4. 0.757
5. 0.0482
